Just for reference, ChEMBL document CHEMBL4513216 is where these values come from.

- ASSAY INFO: Toxicity liver stage against HepG2, at 10uM
- Assay type: cell-based
- Design: test concentration 10 uM, cell line HepG2-A16-CD81EGFP
- CONDITION DESCRIPTION: human, HepG2-A16-CD81EGFP cells; read-out: INHIBITION
MEASUREMENT NAME: cytotoxicity at 10 µM (%)
Give the value, in units of %, as a plain number.

COMPOUND: Cc1ccc(NC2CCN(C(=O)c3ccncc3)CC2)nn1
cytotoxicity at 10 µM (%): 8.85

COMPOUND: CC(C)n1cc(CN2CCCN(C(=O)c3cc(Cl)c[nH]3)CC2)cn1
cytotoxicity at 10 µM (%): -10.9

COMPOUND: O=C(NCC(F)(F)F)c1ccc(-n2cccn2)nn1
cytotoxicity at 10 µM (%): -8.35

COMPOUND: CN(Cc1cc2n(n1)CCCNC2)Cc1cc(-c2ccncc2)no1
cytotoxicity at 10 µM (%): 3.67

COMPOUND: CC(C)(C)S(=O)(=O)c1ccc(N2CCN(c3ccccc3)CC2)nn1
cytotoxicity at 10 µM (%): -4.81

Incoming: Tell me its cytotoxicity at 10 µM given COc1ccc2[nH]cc(C(=O)CNc3nccs3)c2c1 as the entry.
Outgoing: 4.32

Incoming: Answer with the recorded cytotoxicity at 10 µM for the compound listed here: CNC(=O)N1CCN(C(=O)N(C)C)CC2(CC(=O)N(C)C2)C1 (stereo unspecified)
Outgoing: 4.9

###

- ASSAY INFO: Toxicity liver stage against HepG2, at 10uM
- Assay type: cell-based
- Set-up: test concentration 10 uM, cell line HepG2-A16-CD81EGFP
- CONDITION DESCRIPTION: human, HepG2-A16-CD81EGFP cells; read-out: INHIBITION
Parameter cytotoxicity at 10 µM: see the listing below.
Answer in %, number only, no unit symbol.

COMPOUND: CC(C)CN(C)c1ccc(C(=O)N2CCCC2c2cnn(C)c2)cn1 (stereo not drawn)
MEASUREMENT NAME: cytotoxicity at 10 µM
NUMERIC READOUT: -6.95
//
COMPOUND: Cc1cccnc1CC(C)Nc1ncc(C)c(N(C)C)n1 (stereo not drawn)
MEASUREMENT NAME: cytotoxicity at 10 µM
NUMERIC READOUT: 12.1
//
COMPOUND: COc1ncccc1CN1C[C@H]2CCN(C(C)C)C[C@H]2C1
MEASUREMENT NAME: cytotoxicity at 10 µM
NUMERIC READOUT: 2
//
COMPOUND: CN(C(=O)c1ccccc1Cl)C1CCN(c2ccccn2)CC1
MEASUREMENT NAME: cytotoxicity at 10 µM
NUMERIC READOUT: -0.577
//
COMPOUND: Cc1nn(C)c(C)c1-c1ccnc(N(C)Cc2noc(C(C)C)n2)n1
MEASUREMENT NAME: cytotoxicity at 10 µM
NUMERIC READOUT: 26.4

Incoming: Give reported cytotoxicity at 10 µM value for CCc1cc(=O)[nH]c2nnc(SCC(=O)NC)n12
Outgoing: -4.06

Incoming: Recall and state the measured cytotoxicity at 10 µM for COc1cccc(CN2CCCC2c2c(C)nn(C)c2C)c1 (stereo not drawn) .
Outgoing: -2.35

###

- ASSAY INFO: Toxicity liver stage against HepG2, at 10uM
- Type: cell-based
- Parameters: test concentration 10 uM, cell line HepG2-A16-CD81EGFP
- CONDITION DESCRIPTION: human, HepG2-A16-CD81EGFP cells; read-out: INHIBITION
Criterion: cytotoxicity at 10 µM meeting or surpassing -10%. Met: y. Not met: n.

Incoming: hey, is cytotoxicity at 10 µM for this one >= -10%? O=C(NCc1cccnc1OCC(F)(F)F)N1CCOCC1
Outgoing: n

Incoming: Hi team, for O=C(CNc1cc(Br)ccc1Br)NC1CCS(=O)(=O)C1 (configuration not stated) , is the recorded cytotoxicity at 10 µM at or above -10%?
Outgoing: y

Incoming: Please indicate if the recorded cytotoxicity at 10 µM for COCCN1CCN(CC(O)c2ccc(C(F)(F)F)cc2)CC1 (configuration not stated) meets or exceeds -10%.
Outgoing: n

Incoming: Is it the case that CN1CCCC1c1cccc(Cc2ccccc2F)n1 (configuration not stated) has cytotoxicity at 10 µM reaching or exceeding -10%?
Outgoing: y

Incoming: Does CCc1ncc(C(=O)N2CCn3c(CC)nnc3C2)s1 have a reported cytotoxicity at 10 µM of at least -10%?
Outgoing: y

Incoming: API: above_or_equal(metric=cytotoxicity at 10 µM, cutoff=-10%) for item O=C(c1ccc(N2CCOCC2)nc1)N1CCCC(n2ccnc2)C1 (configuration not stated)
Outgoing: n

Incoming: Tell me whether cytotoxicity at 10 µM is at least -10% here: COCCNS(=O)(=O)c1cccc2c1CN(C(=O)c1ccccc1)CC2
Outgoing: y

Incoming: Decide: cytotoxicity at 10 µM of Cc1ccc2nc(C)c(C)c(C(=O)NCCCn3cnnc3)c2c1 >= -10%?
Outgoing: y

Incoming: Could you tell me if the measured cytotoxicity at 10 µM of Cc1ccc(F)cc1S(=O)(=O)NCc1cccnc1N(C)C reaches -10% or more?
Outgoing: y

Incoming: Please check the record COc1ccc(-c2c(C(C)C)nn3c(=N)c(C#N)n[nH]c23)cc1 and state if its cytotoxicity at 10 µM is at or above -10%.
Outgoing: n
